# Target system: Alpha-1B adrenergic receptor (Rattus norvegicus)
# Sequence (P15823 whole entry): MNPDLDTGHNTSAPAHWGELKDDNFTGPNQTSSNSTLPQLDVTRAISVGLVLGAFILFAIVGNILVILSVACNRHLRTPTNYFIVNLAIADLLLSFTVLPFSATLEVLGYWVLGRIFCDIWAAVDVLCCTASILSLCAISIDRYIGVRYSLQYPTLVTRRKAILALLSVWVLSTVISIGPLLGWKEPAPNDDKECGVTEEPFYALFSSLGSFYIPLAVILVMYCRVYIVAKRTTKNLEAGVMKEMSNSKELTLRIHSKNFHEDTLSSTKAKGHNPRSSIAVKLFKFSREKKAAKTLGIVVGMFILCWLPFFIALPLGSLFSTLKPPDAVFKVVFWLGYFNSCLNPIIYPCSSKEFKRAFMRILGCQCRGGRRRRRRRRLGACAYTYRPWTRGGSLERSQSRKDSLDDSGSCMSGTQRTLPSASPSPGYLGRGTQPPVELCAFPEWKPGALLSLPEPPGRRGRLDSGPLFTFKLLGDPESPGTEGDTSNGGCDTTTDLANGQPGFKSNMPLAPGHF
Property label: pIC50
To interpret pIC50, take it as minus log10 of a concentration measured in moles per litre.

Returns the measured pIC50 for the input compound. Input: Cc1ccc2c(N3CCN(CCc4cccc(N5CCNC5=O)c4)CC3)cccc2n1
7.60

---

# Protocol details: Clearance in dog at 0.5 mg/kg, iv
# Measurement setup: in vivo
Property label: clearance (mL/min/kg)
Note: unit mL/min/kg is implicit; provide only the numeric part.

Returns the measured clearance for the input compound. Input: Cc1ccc2c(N3CCN(CCc4cccc(N5CCNC5=O)c4)CC3)cccc2n1.Cl.Cl
60

---

# Target system: Sodium-dependent serotonin transporter (Rattus norvegicus)
# Sequence (P31652 whole entry): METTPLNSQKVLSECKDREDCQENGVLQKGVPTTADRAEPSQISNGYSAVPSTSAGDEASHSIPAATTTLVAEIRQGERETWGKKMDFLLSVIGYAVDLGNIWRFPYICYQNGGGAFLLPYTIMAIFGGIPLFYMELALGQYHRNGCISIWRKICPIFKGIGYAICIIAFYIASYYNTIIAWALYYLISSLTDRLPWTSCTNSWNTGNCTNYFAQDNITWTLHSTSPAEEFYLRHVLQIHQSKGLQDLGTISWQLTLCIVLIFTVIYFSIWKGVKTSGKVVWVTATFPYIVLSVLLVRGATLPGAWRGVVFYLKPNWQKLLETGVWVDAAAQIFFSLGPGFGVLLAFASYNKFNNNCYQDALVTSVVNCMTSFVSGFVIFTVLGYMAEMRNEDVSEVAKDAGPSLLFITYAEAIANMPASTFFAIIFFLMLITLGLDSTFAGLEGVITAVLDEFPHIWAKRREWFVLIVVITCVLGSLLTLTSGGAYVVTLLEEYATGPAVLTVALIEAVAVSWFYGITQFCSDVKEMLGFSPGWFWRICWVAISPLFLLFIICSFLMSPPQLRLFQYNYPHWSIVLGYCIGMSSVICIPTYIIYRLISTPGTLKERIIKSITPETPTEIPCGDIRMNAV
# Protocol details: Inhibition of [3H]5-HT uptake at SERT in rat cortical synaptosomes
Property label: Ki (nM)

// known answers, use as guide
- Chemical smiles: "COc1cccc(C(=O)Nc2cccc(CCN3CCN(c4cccc5nc(C)ccc45)CC3)c2)c1"
  Ki / nM: 1260
- Chemical smiles: "Cc1ccc2c(N3CCN(CCc4cccc(NC(=O)Nc5ccccc5)c4)CC3)cccc2n1"
  Ki / nM: 2000
- Chemical smiles: "Cc1ccc2c(N3CCN(CCc4cccc(NC(=O)C(C)C)c4)CC3)cccc2n1"
  Ki / nM: 1260
- Chemical smiles: "Cc1ccc2c(N3CCN(CCc4cccc(NC(=O)Nc5ccc(F)cc5)c4)CC3)cccc2n1"
  Ki / nM: 1260
- Chemical smiles: "Cc1ccc2c(N3CCN(CCc4cccc(N5C(=O)CCC5=O)c4)CC3)cccc2n1"
  Ki / nM: 20000
- Chemical smiles: "COc1ccc(C(=O)Nc2cccc(CCN3CCN(c4cccc5nc(C)ccc45)CC3)c2)cc1"
  Ki / nM: 1260
- Chemical smiles: "COC(=O)Nc1cccc(CCN2CCN(c3cccc4nc(C)ccc34)CC2)c1"
  Ki / nM: 501
- Chemical smiles: "Cc1ccc2c(N3CCN(CCc4cccc(NC(=O)c5cnccn5)c4)CC3)cccc2n1"
  Ki / nM: 398

A. Cc1ccc2c(N3CCN(CCc4cccc(NC(=O)C(C)(C)C)c4)CC3)cccc2n1
B. Cc1ccc2c(N3CCN(CCc4cccc(NC(=O)NC(C)(C)C)c4)CC3)cccc2n1
Which value of Ki is greater, the one for A or the one for B ? State your choice using its label.
A
(A: 1580 nM, B: 794 nM)

---

# Target system: 5-hydroxytryptamine receptor 1B (Homo sapiens)
# Sequence (P28222 whole entry): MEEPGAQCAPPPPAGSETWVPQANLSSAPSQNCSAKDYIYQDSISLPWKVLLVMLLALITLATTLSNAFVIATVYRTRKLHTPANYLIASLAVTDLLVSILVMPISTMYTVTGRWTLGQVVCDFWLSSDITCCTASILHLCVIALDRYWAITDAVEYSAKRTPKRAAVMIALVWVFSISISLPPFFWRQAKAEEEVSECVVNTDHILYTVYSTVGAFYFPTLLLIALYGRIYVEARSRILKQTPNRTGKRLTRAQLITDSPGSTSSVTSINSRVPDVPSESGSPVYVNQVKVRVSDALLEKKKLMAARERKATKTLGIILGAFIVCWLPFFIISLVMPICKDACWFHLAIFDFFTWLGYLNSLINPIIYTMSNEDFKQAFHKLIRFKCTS
# Protocol details: Displacement of [3H]5-HT from human recombinant 5-HT1B receptor expressed in CHO cells
Property label: Ki (nM)

- Chemical smiles: "CCCS(=O)(=O)Nc1cccc(CCN2CCN(c3cccc4nc(C)ccc34)CC2)c1"
  Units: "nM"
  Ki: 2
- Chemical smiles: "CC(=O)Nc1cccc(CCN2CCN(c3cccc4nc(C)ccc34)CC2)c1"
  Units: "nM"
  Ki: 0.501
- Chemical smiles: "Cc1ccc2c(N3CCN(CCc4cccc(NC(=O)C(C)C)c4)CC3)cccc2n1"
  Units: "nM"
  Ki: 1.58
- Chemical smiles: "CCOC(=O)Nc1cccc(CCN2CCN(c3cccc4nc(C)ccc34)CC2)c1"
  Units: "nM"
  Ki: 1.26
- Chemical smiles: "Cc1ccc2c(N3CCN(CCc4cccc(N5C(=O)CCC5=O)c4)CC3)cccc2n1"
  Units: "nM"
  Ki: 39.8

a. Cc1ccc2c(N3CCN(CCc4cccc(NC(=O)Nc5ccc(F)cc5)c4)CC3)cccc2n1
b. Cc1ccc2c(N3CCN(CCc4cccc(NC(=O)C(C)(C)C)c4)CC3)cccc2n1
c. Cc1ccc2c(N3CCN(CCc4cccc(N5CCCOC5=O)c4)CC3)cccc2n1
d. Cc1ccc2c(N3CCN(CCc4cccc(NC(=O)Nc5ccccc5F)c4)CC3)cccc2n1
e. Cc1ccc2c(N3CCN(CCc4cccc(NC(=O)c5ccc(F)cc5)c4)CC3)cccc2n1
Hey, quick one: sort these by Ki, largest value first please. Form entry: labels listed in requested order.
c, e, a, b, d

A. Cc1ccc2c(N3CCN(CCc4cccc(NC(=O)c5cccc(F)c5)c4)CC3)cccc2n1
B. Cc1ccc2c(N3CCN(CCc4cccc(N5CCCNC5=O)c4)CC3)cccc2n1
Just tell me: smaller Ki value, A or B ? State your choice using its label.
A
(A: 3.16 nM, B: 39.8 nM)

---

A short record of pKi observed with Voltage-gated inwardly rectifying potassium channel KCNH2 (Homo sapiens) follows.
Sequence (Q12809 whole entry): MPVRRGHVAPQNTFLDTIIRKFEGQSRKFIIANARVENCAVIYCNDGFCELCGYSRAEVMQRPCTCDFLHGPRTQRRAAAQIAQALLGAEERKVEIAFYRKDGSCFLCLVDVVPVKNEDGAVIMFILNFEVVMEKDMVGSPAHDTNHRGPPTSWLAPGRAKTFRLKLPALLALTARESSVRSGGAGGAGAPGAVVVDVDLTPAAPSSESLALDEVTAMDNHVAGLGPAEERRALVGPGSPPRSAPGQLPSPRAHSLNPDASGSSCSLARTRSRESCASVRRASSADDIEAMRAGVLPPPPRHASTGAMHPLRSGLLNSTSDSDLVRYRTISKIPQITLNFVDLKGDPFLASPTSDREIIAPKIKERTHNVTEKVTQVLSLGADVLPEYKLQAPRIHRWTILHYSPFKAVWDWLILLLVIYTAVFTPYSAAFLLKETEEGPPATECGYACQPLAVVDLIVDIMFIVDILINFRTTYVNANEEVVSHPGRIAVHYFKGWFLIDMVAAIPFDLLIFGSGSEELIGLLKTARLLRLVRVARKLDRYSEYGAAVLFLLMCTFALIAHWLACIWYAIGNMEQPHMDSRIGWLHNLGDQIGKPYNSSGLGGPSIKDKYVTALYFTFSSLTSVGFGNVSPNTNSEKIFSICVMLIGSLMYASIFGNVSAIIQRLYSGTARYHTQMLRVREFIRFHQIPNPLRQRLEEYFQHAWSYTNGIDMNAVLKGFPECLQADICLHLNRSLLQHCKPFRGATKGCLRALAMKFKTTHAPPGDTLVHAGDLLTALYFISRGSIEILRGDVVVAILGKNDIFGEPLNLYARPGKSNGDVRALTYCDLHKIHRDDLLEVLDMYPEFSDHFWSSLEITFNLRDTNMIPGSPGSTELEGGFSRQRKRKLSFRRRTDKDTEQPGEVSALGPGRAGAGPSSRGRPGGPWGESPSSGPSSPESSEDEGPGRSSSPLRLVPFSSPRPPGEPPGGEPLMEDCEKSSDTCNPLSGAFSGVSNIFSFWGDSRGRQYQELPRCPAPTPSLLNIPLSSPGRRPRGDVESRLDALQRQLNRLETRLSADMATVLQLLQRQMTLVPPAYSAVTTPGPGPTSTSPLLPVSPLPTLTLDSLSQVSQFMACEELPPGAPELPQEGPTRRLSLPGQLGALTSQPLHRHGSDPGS
To interpret pKi, take it as minus log10 of a concentration measured in moles per litre.

// known answers, use as guide
- Chemical smiles: "Cc1ccc2c(N3CCN(CCc4cccc(NC(=O)c5ccccc5)c4)CC3)cccc2n1"
  Property label: "pKi"
  Observed measurement: 7.30
- Chemical smiles: "Cc1ccc2c(N3CCN(CCc4cccc(NS(C)(=O)=O)c4)CC3)cccc2n1"
  Property label: "pKi"
  Observed measurement: 6.30
- Chemical smiles: "Cc1ccc2c(N3CCN(CCc4cccc(N5CCNC5=O)c4)CC3)cccc2n1"
  Property label: "pKi"
  Observed measurement: 4.90
- Chemical smiles: "Cc1ccc2c(N3CCN(CCc4cccc(N5CCOC5=O)c4)CC3)cccc2n1"
  Property label: "pKi"
  Observed measurement: 5.70
- Chemical smiles: "Cc1ccc2c(N3CCN(CCc4cccc(NC(=O)Nc5ccccc5)c4)CC3)cccc2n1"
  Property label: "pKi"
  Observed measurement: 6.50
- Chemical smiles: "Cc1ccc2c(N3CCN(CCc4cccc(NC(=O)c5csc(C)n5)c4)CC3)cccc2n1"
  Property label: "pKi"
  Observed measurement: 6.50

Returns the measured pKi for the input compound. Input: CCNC(=O)Nc1cccc(CCN2CCN(c3cccc4nc(C)ccc34)CC2)c1
6.20

---

# Target system: Cytochrome P450 3A4 (Homo sapiens, UniProt P08684)
# Sequence (P08684 whole entry): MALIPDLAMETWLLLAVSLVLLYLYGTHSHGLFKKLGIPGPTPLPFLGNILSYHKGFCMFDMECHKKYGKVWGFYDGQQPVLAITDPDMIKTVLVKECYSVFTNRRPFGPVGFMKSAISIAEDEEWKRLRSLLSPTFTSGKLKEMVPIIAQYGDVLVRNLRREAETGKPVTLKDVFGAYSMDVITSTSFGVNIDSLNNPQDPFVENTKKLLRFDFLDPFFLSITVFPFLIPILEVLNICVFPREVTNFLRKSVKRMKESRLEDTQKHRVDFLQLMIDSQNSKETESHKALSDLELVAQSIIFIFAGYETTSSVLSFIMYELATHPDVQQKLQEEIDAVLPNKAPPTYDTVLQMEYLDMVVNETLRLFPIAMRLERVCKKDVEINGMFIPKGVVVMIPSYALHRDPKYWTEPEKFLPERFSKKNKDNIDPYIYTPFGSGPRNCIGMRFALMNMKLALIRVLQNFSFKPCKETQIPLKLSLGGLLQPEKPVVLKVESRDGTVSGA
# Protocol details: Inhibition of human recombinant CYP3A4
Property label: IC50 (µM)
Note: unit µM is implicit; provide only the numeric part.

Returns the measured IC50 for the input molecule. Input: Cc1ccc2c(N3CCN(CCc4cccc(N5CCNC5=O)c4)CC3)cccc2n1 [GSK163090]
67

---

# Protocol details: Protein binding in rat plasma at 1 ug/mL by equilibrium dialysis method
Property label: fraction unbound at 1 ug/mL
# print the numeric value only

Returns the measured fraction unbound at 1 ug/mL for the input compound. Input: Cc1ccc2c(N3CCN(CCc4cccc(N5CCNC5=O)c4)CC3)cccc2n1
0.041

---

# Protocol details: in vivo
# Measurement setup: dog, po, 1 mg/kg
Property label: bioavailability (%)
Note: unit % is implicit; provide only the numeric part.

Returns the measured bioavailability for the input compound. Input: Cc1ccc2c(N3CCN(CCc4cccc(N5CCNC5=O)c4)CC3)cccc2n1.Cl.Cl
6

---

# Protocol details: Half life in Sprague-Dawley rat at 0.5 mg/kg, iv after 24 hrs
# Format: ADME, organism-based
# Design: dose 0.5 mg/kg, route intravenous
# Measurement setup: in vivo
Property label: half-life (h)

- Chemical smiles: "Cc1ccc2c(N3CCN(CCc4cccc(NS(C)(=O)=O)c4)CC3)cccc2n1.Cl.Cl"
  Units: "h"
  half-life: 3.9

1. Cc1ccc2c(N3CCN(CCc4cccc(N5CCNC5=O)c4)CC3)cccc2n1.Cl.Cl
2. CC(=O)Nc1cccc(CCN2CCN(c3cccc4nc(C)ccc34)CC2)c1.Cl.Cl
Which value of half-life is greater, the one for 1 or the one for 2 ? State your choice using its label.
2
(2: 4.6 h, 1: 3.2 h)

---

# Target system: 5-hydroxytryptamine receptor 1A (Homo sapiens)
# Sequence (P08908 whole entry): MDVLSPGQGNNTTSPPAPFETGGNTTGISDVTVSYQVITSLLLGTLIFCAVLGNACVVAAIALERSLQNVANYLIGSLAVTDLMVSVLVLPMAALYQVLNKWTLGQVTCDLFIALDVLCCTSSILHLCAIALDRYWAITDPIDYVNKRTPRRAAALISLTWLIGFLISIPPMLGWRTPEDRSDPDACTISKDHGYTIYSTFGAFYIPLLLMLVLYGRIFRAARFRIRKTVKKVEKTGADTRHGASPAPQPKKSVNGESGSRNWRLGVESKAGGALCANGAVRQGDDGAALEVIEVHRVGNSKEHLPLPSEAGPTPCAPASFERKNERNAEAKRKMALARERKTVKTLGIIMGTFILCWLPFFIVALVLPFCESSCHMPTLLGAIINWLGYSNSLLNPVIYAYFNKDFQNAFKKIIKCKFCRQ
# Protocol details: Displacement of [3H]WAY100635 from human recombinant 5-HT1A receptor expressed in CHO cells
Property label: Ki (nM)

- Chemical smiles: "Cc1ccc2c(N3CCN(CCc4cccc(NC(=O)Nc5cccc(F)c5)c4)CC3)cccc2n1"
  Ki / nM: 3.98
- Chemical smiles: "COc1ccc(C(=O)Nc2cccc(CCN3CCN(c4cccc5nc(C)ccc45)CC3)c2)cc1"
  Ki / nM: 3.16
- Chemical smiles: "Cc1ccc2c(N3CCN(CCc4cccc(N5CCCNC5=O)c4)CC3)cccc2n1"
  Ki / nM: 3.16
- Chemical smiles: "Cc1ccc2c(N3CCN(CCc4cccc(NC(=O)c5ccccc5F)c4)CC3)cccc2n1"
  Ki / nM: 1
- Chemical smiles: "Cc1ccc2c(N3CCN(CCc4cccc(NC(=O)C(C)C)c4)CC3)cccc2n1"
  Ki / nM: 2
- Chemical smiles: "Cc1ccc2c(N3CCN(CCc4cccc(NS(C)(=O)=O)c4)CC3)cccc2n1"
  Ki / nM: 0.794

I. Cc1ccc2c(N3CCN(CCc4cccc(NC(=O)c5cccc(F)c5)c4)CC3)cccc2n1
II. Cc1ccc2c(N3CCN(CCc4cccc(NC(=O)Nc5ccccc5)c4)CC3)cccc2n1
III. Cc1ccc2c(N3CCN(CCc4cccc(NC(=O)NC(C)(C)C)c4)CC3)cccc2n1
Hey, quick one: sort these by Ki, largest value first please. Form entry: labels listed in requested order.
III, II, I
(III: 7.94 nM, II: 3.98 nM, I: 0.631 nM)
